The measured values listed here are drawn from PubChem BioAssay (NCI).

Listed next: entries and their corresponding TGI.
# Test system: OVCAR-3 ovarian
# experiment_summary: NCI tumour cell line growth inhibition, 48 h

# annotated cases, reported TGI shown
- compound: "c1ccc(P(=Nc2ccccc2N=P(c2ccccc2)(c2ccccc2)c2ccccc2)(c2ccccc2)c2ccccc2)cc1"
  reported_value: "0.783 µM"
- compound: "CCOC(=O)CSc1nnc(C(Sc2nc(-c3ccccc3)c(-c3ccccc3)[nH]2)C(C)C)n1-c1ccccc1 (centres undefined)"
  reported_value: "> 10 µM"
- compound: "COC12c3ccccc3-c3ccccc3C1[C@H]1C(=O)OC(=O)[C@H]12 (some centres undefined)"
  reported_value: "> 10 µM"
- compound: "COc1cc(-c2cc(-c3cc([N+](=O)[O-])c(/C=N/NC(=O)c4ccncc4)o3)ccc2OC)ccc1C"
  reported_value: "> 100 µM"
- compound: "COCCOCOc1ccc(OCOCCOC)c2c1C(=O)c1ccccc1C2=O"
  reported_value: "> 100 µM"
- compound: "Nc1ccccc1SCc1csc(-c2ccc(Cl)cc2)n1"
  reported_value: "> 67.6 µM"
- compound: "Brc1ccc(-c2cn3ccncc3n2)cc1"
  reported_value: "> 100 µM"
- compound: "O=C(NC1CCCC1=O)c1ccccc1 (centres undefined)"
  reported_value: "> 100 µM"
- compound: "CCC[C@H](C)C[C@H](C)C[C@H](C)/C=C(\\C)[C@@H](O)[C@@H](C)C(=O)CC"
  reported_value: "34.4 µM"
- compound: "CC(C)c1c2[nH]c3ccccc3c2c(C(C)C)c2[nH]c3ccccc3c12"
  reported_value: "> 100 µM"

[Q] Item under review: CC(=O)OCC1OC(n2c(=O)[nH]c(=O)c3sccc32)C(Br)C1OC(C)=O (centres undefined) . Reported TGI?
[A] > 100 µM

[Q] Look up TGI: O=C(O)CNC(=O)c1c2ccccc2nc2ccccc12
[A] > 100 µM
